B1: library; a variant is named by its letters at N, in order (parent)
chain: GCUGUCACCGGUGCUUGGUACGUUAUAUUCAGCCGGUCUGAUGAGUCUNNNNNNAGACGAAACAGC

Variants of: B1
Procedure Summary: FACS-Seq fitted mean relative fluorescence mCherry/BFP without ligand (log10 relative fluorescence); HEK293T overexpressing SLC46A1; higher = higher reporter protein expression
Particulars: without (6R,S)-folinic acid; ligand present: no
Result Type: FACS-Seq fitted mean (log10)
Answer as a number with no unit attached.

The following variants have reported results that may help.
UAGGGG : 0.0613
AUAGCA : 0.356
AACAAA : 0.414
UUGGGU : 0.184
GUAGAG : 0.201

Item "GUAAAA" has what recorded FACS-Seq fitted mean (log10)?
0.0987

Please give the measured FACS-Seq fitted mean (log10) for this variant: "AUGUAG"
0.508

# query: FACS-Seq fitted mean (log10) of entry "GUCUGG"
0.433

What measured FACS-Seq fitted mean (log10) goes with "AAUAUA" ?
0.602

FACS-Seq fitted mean (log10) for "GGAAUC" ?
-0.317

Entry "UAUUUC" has what FACS-Seq fitted mean (log10)?
0.248

Given the variant "UACCUG" , what is its reported FACS-Seq fitted mean (log10)?
0.402
